The reader will find reported VEGF_ADSC\ECFC Angio CD31 TubeArea IC50/EC50 values listed item by item below.
System: endothelial tube formation in co-cultures of ECFCs and ADSCs treated with VEGF
assay_method_text: cells
Assay type: cell-based, human
measure: VEGF_ADSC\ECFC Angio CD31 TubeArea IC50/EC50

[[record]]
compound = "Cc1c(O)cc2c(c1C)O[C@](C)(CCC[C@H](C)CCC[C@H](C)CCCC(C)C)CC2"
experimental_value = "> 10 µM"

[[record]]
compound = "CCCCC(CC)COC(=O)C(C#N)=C(c1ccccc1)c1ccccc1 (stereo not shown)"
experimental_value = "> 10 µM"

[[record]]
compound = "CCCCCCCCOC(=O)c1ccccc1C(=O)OCCCCCCCC"
experimental_value = "> 10 µM"

[[record]]
compound = "O=C1C(=O)c2ccccc2C(O)=C1C1CCC(c2ccc(Cl)cc2)CC1 (stereo not shown)"
experimental_value = "5.1845 µM"

